systemName: T1, HLA-B*07:02 (human, biotinylated heavy chain)
T1 construct: Conditional HLA class I complex as for m1
experimentNotes: UV peptide exchange; HLA class I ELISA;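 also: ELISA detecting beta2-microglobulin of intact HLA class I complexes captured on streptavidin wells after UV-induced exchange, absorbance read-out, reference is UV-irradiated conditional complex lacking rescue peptide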
property: Exch I (%)

- binder: "SLIAMDSAI [Peptide 3, 9-mer SLIAMDSAI derived from FUS1 (SEQ ID NO: 1001)]"
  measured: 10.9
- binder: "IAMDSAITL [Peptide 2, 9-mer IAMDSAITL derived from FUS1 (SEQ ID NO: 1001)]"
  measured: 68.7
- binder: "LIAMDSAIT [Peptide 10, 9-mer LIAMDSAIT derived from P22 (SEQ ID NO: 1003)]"
  measured: 9.8
- binder: "HREKQLIAM [Peptide 7, 9-mer HREKQLIAM derived from P22 (SEQ ID NO: 1003)]"
  measured: 12.6
- binder: "SLYHREKQL [Peptide 4, 9-mer SLYHREKQL derived from P22 (SEQ ID NO: 1003)]"
  measured: 10.9
- binder: "KQLIAMDSA [Peptide 9, 9-mer KQLIAMDSA derived from P22 (SEQ ID NO: 1003)]"
  measured: 10.5
- binder: "LYHREKQLI [Peptide 5, 9-mer LYHREKQLI derived from P22 (SEQ ID NO: 1003)]"
  measured: 11.5
- binder: "YHREKQLIA [Peptide 6, 9-mer YHREKQLIA derived from P22 (SEQ ID NO: 1003)]"
  measured: 11.1
- binder: "AMDSAITLW [Peptide 1, 9-mer AMDSAITLW derived from FUS1 (SEQ ID NO: 1001)]"
  measured: 10
